# Measurement Target: T1, hIL-4Rα on cells (human, UniProt P24394 26-825)
# T1 sequence: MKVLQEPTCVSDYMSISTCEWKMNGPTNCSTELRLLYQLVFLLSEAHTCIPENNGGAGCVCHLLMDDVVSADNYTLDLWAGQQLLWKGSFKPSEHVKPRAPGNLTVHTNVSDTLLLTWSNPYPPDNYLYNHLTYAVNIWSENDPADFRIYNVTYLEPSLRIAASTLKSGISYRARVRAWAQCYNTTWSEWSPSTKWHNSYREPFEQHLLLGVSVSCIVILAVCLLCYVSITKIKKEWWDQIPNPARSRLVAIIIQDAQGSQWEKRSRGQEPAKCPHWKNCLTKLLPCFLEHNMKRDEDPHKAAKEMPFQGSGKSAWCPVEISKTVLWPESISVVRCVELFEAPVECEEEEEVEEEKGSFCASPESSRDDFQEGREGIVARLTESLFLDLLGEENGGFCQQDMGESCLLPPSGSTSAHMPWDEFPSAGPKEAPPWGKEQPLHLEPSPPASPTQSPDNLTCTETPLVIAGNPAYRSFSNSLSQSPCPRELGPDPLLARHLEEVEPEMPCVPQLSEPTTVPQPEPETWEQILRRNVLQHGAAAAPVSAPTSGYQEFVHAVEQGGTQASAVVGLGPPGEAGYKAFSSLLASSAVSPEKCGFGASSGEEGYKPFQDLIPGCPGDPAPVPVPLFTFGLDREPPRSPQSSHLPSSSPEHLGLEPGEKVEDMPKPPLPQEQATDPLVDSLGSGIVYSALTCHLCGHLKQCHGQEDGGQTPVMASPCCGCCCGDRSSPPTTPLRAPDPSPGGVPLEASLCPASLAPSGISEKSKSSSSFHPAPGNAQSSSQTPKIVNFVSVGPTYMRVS
# Protocol Notes: cell-based or functional assay
Measurement Type: Relative Inhibition of IL-4 induced pSTAT6 IC50

Construct 9 (mAb418) (antibody, IgG4, V domains shown, VH/VL only) VH: EVQLVESGGGLEQPGGSLRLSCAGSGFTFTDFAMTWVRQAPGKGLEWVSSISGSGGNIYYADSVKGRFTISRDNSKNTLYLQMNSLRAEDTAVYYCAKDRLSVTVRPRYYGLDVWGQGTTVTVSS VL: DIVMTQSPLSLPVTPGEPASISCRSSQSLLYSIGKNYVDWYLQKSGQSPQLLIYLGNNRATGVPDRFSGSGSGTDFTLKISRVEAEDVGFYYCMQALGSPYTFGQGTKLEIK ... 0.761 relative to dupilumab

Exam item: Query: Relative Inhibition of IL-4 induced pSTAT6 IC50; subject: Construct 21 (mAb429) (antibody, IgG4, V domains shown, VH/VL only) VH: EVQLVESGGGLEQPGGSLRLSCAGSGFTFRTYAMTWVRQAPGKGLEWVSSISGSGGNIYYADSVKGRFTISRDNSKNTLYLQMNSLRAEDTAVYYCAKDRVSIYVRPRYYGLDVWGQGTTVTVSS VL: DIVMTQSPLSLPVTPGEPASISCTASQSLLYSIGYNYVDWYLQKSGQSPQLLIYLGSKRASGVPDRFSGSGSGTDFTLKISRVEAEDVGFYYCMQSLTSPYTFGQGTKLEIK
Marked response: 0.305 relative to dupilumab

Exam item: Same read-out for Construct 22 (mAb430) (antibody, IgG4, V domains shown, VH/VL only) VH: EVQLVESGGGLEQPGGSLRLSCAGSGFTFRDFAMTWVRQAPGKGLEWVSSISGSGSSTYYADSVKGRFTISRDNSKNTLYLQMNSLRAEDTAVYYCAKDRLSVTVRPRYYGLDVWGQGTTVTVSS VL: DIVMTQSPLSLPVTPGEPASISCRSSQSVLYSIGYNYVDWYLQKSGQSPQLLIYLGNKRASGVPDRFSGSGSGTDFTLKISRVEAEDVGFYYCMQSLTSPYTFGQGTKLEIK ?
Marked response: 0.749 relative to dupilumab

Exam item: Here is the next binder: Construct 15 (mAb423) (antibody, IgG4, V domains shown, VH/VL only) VH: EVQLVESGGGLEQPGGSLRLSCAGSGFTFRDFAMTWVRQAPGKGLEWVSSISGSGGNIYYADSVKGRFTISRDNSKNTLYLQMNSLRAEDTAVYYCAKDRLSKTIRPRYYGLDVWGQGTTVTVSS VL: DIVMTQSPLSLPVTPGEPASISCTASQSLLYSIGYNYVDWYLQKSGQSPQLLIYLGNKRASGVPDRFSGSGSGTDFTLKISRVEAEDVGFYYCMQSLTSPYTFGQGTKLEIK
Marked response: 0.285 relative to dupilumab

Exam item: And for Construct 11 (mAb420) (antibody, IgG4, V domains shown, VH/VL only) VH: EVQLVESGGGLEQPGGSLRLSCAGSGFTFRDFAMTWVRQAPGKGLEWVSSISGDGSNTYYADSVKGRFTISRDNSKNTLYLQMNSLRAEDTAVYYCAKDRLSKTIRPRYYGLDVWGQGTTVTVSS VL: DIVMTQSPLSLPVTPGEPASISCRSSQSVLYSIGYNYVDWYLQKSGQSPQLLIYLGNKRASGVPDRFSGSGSGTDFTLKISRVEAEDVGFYYCMQSLQTPYTFGQGTKLEIK ?
Marked response: 0.638 relative to dupilumab

Exam item: And the next one, Construct 27 (mAb435) (antibody, IgG4, V domains shown, VH/VL only) VH: EVQLVESGGGLEQPGGSLRLSCAGSGFTFTDFAMTWVRQAPGKGLEWVSSISGSGGNKYYADSVKGRFTISRDNSKNTLYLQMNSLRAEDTAVYYCAKDRLSVTVRPRYYGLDVWGQGTTVTVSS VL: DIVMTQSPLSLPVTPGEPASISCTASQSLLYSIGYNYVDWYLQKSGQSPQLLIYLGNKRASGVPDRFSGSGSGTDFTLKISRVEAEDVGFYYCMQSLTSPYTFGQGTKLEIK ?
Marked response: 0.676 relative to dupilumab

Exam item: Let us now turn to Construct 33 (mAb450) (antibody, IgG4, V domains shown, VH/VL only) VH: EVQLVESGGGLEQPGGSLRLSCAGSGFTFRDFAMTWVRQAPGKGLEWVSSISGSGGNIYYADSVKGRFTISRDNSKNTLYLQMNSLRAEDTAVYYCAKDRVSITIRPRYYGLDVWGQGTTVTVSS VL: DIVMTQSPLSLPVTPGEPASISCTASQSLLYSIGYNYVDWYLQKSGQSPQLLIYLGSKRASGVPDRFSGSGSGTDFTLKISRVEAEDVGFYYCMQALGSPYTFGQGTKLEIK
Marked response: 0.888 relative to dupilumab

Exam item: Next up: Construct 46 (mAb501) (antibody, IgG4, V domains shown, VH/VL only) VH: EVQLVESGGGLEQPGGSLRLSCAGSGFTFRDSAMTWVRQAPGKGLEWVSSISGSGDGTYYADSVKGRFTISRDNSKNTLYLQMNSLRAEDTAVYYCAKDRLSIYIRPRYYGLDVWGQGTTVTVSS VL: DIVMTQSPLSLPVTPGEPASISCTSSQSLLYSIGYNYVDWYLQKSGQSPQLLIYLGNKRASGVPDRFSGSGSGTDFTLKISRVEAEDVGFYYCMQALQTPYTFGQGTKLEIK
Marked response: 1.04 relative to dupilumab

FYI, the data here is from patent US20260193366A1.
